Origin of measurements: PubChem BioAssay (Tox21)

Experiment: A CellTox Green Cytotoxicity Assay to monitor cytotoxicity in HEK293 cells - 0 hour (AID 1224869); further: on the % scale 0 is the no-effect control and ±100 the full control effect; nearly all actives have a fitted effect of over 50% in size
Conditions: CellTox Green fluorescence; series mostly up to 76.8 µM
Active and inactive are the calls of the source. The call rests on the fitted dose curve; in most records, active means well fitted activation curve with a large enough effect in the repeat runs; inconclusive means weak or mixed curves; inactive means flat fitted curve, though single readings scatter.
measured endpoint: cytotoxicity

Worked examples, 4 compounds total:
INSERT INTO measurements (compound, measured_endpoint, experimental_value) VALUES
  ('C[C@@H]1CN(c2c(F)c(N)c3c(=O)c(C(=O)O)cn(C4CC4)c3c2F)C[C@H](C)N1', 'cytotoxicity', '8.42% [at 15.8 µM] (inactive)'),
  ('CN1CCC[C@@H]1Cc1c[nH]c2ccc(CCS(=O)(=O)c3ccccc3)cc12', 'cytotoxicity', 'inactive'),
  ('CS(=O)(=O)c1ccc([C@@H](O)[C@@H](CF)NC(=O)C(Cl)Cl)cc1', 'cytotoxicity', 'inactive'),
  ('CC1=NN(c2cc(Cl)c(S(=O)(=O)O)cc2Cl)C(=O)C1N=Nc1ccc(S(=O)(=O)O)cc1 (stereo not given)', 'cytotoxicity', 'inactive');

Challenge: // returns reported cytotoxicity for input CC(C)C(=O)OCC(C)(C)C(O)C(C)C (stereo not given)
Response given: inactive

###

Biological target: Cytochrome P450 3A4 (Homo sapiens) (UniProt P08684)
Sequence (P08684 whole entry, looked up): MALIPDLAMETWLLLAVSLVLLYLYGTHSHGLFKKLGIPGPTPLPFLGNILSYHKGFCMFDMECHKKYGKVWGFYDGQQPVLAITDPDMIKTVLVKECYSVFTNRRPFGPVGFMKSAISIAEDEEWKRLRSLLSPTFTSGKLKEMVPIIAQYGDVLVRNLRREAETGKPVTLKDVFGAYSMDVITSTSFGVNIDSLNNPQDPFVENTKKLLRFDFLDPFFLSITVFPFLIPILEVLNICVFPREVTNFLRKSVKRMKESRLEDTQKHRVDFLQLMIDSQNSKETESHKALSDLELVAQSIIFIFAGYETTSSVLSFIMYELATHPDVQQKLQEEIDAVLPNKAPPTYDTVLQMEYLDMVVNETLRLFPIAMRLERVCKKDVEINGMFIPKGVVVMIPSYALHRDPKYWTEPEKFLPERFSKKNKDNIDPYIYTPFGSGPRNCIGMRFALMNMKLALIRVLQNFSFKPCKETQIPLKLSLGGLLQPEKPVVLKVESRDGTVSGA
Assay: Cytochrome P450 Family 3 Subfamily A Member 4 (CYP3A4) small molecule antagonists: luciferase reporter qHTS assay (AID 1671201); further: nearly all actives have a fitted effect of over 50% in size; further: potency means the concentration at half of the fitted maximal effect
Conditions: P450-Glo CYP3A4 enzyme, luciferin luminescence, 1 h; series mostly up to 115 µM
Text: National Center for Advancing Translational Sciences [NCATS] U.S. Environmental Protection Agency [EPA] National Institutes of Environmental Health Sciences [NIEHS] National Toxicology Program [NTP] U.S. Food and Drug Administration [FDA] Cytochrome P450 (CYP) enzymes are membrane-bound hemeproteins that play a key role in metabolism of drugs and xenobiotics. […] The luciferin products formed are detected with a luciferin detection reagent, and the amount of light produced is proportional to CYP activity. […]
Records with an inconclusive call do not appear. Calls of active or inactive are those of the source. Calls come from the whole dose curve; as a rule, active = well fitted inhibition curve with a large enough effect in the repeat runs; inconclusive = weak or mixed curves; inactive = no such curve, though single readings can be large or run the other way.
measured endpoint: Potency

INSERT INTO results (compound, experimental_value) VALUES
  ('Cc1c[nH]c(=S)[nH]c1=O', 'inactive'),
  ('O=C(CC(=O)C(F)(F)F)c1ccccc1', 'inactive'),
  ('Clc1cccc(-c2cc(Cl)cc(Cl)c2)c1', 'inactive'),
  ('CCCCNCCCC', 'inactive'),
  ('CC(C)O', 'inactive');

Challenge: Request - read-out Potency | tested on Cytochrome P450 3A4 (Homo sapiens) (UniProt P08684) | compound "COc1cc(C)ccc1C(C)C"
Response given: inactive

Challenge: Request - read-out Potency | tested on Cytochrome P450 3A4 (Homo sapiens) (UniProt P08684) | compound "CC(=O)Nc1ccc(C)c(Cl)c1"
Response given: 39.9 µM (active)

Challenge: Request - read-out Potency | tested on Cytochrome P450 3A4 (Homo sapiens) (UniProt P08684) | compound "OCc1c2ccccc2cc2ccccc12"
Response given: 25.3 µM (active)

Challenge: Request - read-out Potency | tested on Cytochrome P450 3A4 (Homo sapiens) (UniProt P08684) | compound "CN(C)Cc1ccccc1"
Response given: inactive

Challenge: Request - read-out Potency | tested on Cytochrome P450 3A4 (Homo sapiens) (UniProt P08684) | compound "CCCCNC(=S)NCCCC"
Response given: 31.7 µM (active)

Challenge: Request - read-out Potency | tested on Cytochrome P450 3A4 (Homo sapiens) (UniProt P08684) | compound "NC(=O)Cc1cccc(C(=O)c2ccccc2)c1N"
Response given: inactive

Challenge: Request - read-out Potency | tested on Cytochrome P450 3A4 (Homo sapiens) (UniProt P08684) | compound C=CC1CO1 (stereo not given)
Response given: inactive

Challenge: Request - read-out Potency | tested on Cytochrome P450 3A4 (Homo sapiens) (UniProt P08684) | compound COC(C)CCO (stereo not given)
Response given: inactive

Challenge: Request - read-out Potency | tested on Cytochrome P450 3A4 (Homo sapiens) (UniProt P08684) | compound "Cc1cc2c(s1)Nc1ccccc1N=C2N1CCN(C)CC1"
Response given: inactive

Challenge: Request - read-out Potency | tested on Cytochrome P450 3A4 (Homo sapiens) (UniProt P08684) | compound "CC(C)OC(C)C"
Response given: inactive

Challenge: Request - read-out Potency | tested on Cytochrome P450 3A4 (Homo sapiens) (UniProt P08684) | compound "CC(C)C1=CC2=CC[C@@H]3[C@](C)(CCC[C@@]3(C)C(=O)O)[C@H]2CC1"
Response given: 35.6 µM (active)

Challenge: Request - read-out Potency | tested on Cytochrome P450 3A4 (Homo sapiens) (UniProt P08684) | compound "CCC(=O)Nc1ccc(O)cc1"
Response given: inactive

Challenge: Request - read-out Potency | tested on Cytochrome P450 3A4 (Homo sapiens) (UniProt P08684) | compound "C=CCCC=C"
Response given: inactive

Challenge: Request - read-out Potency | tested on Cytochrome P450 3A4 (Homo sapiens) (UniProt P08684) | compound "O=C(Cl)c1cccc([N+](=O)[O-])c1"
Response given: inactive

Challenge: Request - read-out Potency | tested on Cytochrome P450 3A4 (Homo sapiens) (UniProt P08684) | compound "N#CSCC(=O)O"
Response given: inactive

Challenge: Request - read-out Potency | tested on Cytochrome P450 3A4 (Homo sapiens) (UniProt P08684) | compound "Cc1cc(NS(=O)(=O)c2ccc(N)cc2)nc(C)n1"
Response given: inactive

Challenge: Request - read-out Potency | tested on Cytochrome P450 3A4 (Homo sapiens) (UniProt P08684) | compound "CC1=CC(=O)CC(C)(C)C1=O"
Response given: inactive

Challenge: Request - read-out Potency | tested on Cytochrome P450 3A4 (Homo sapiens) (UniProt P08684) | compound "O=Cc1ccc(F)c(Br)c1"
Response given: inactive

Challenge: Request - read-out Potency | tested on Cytochrome P450 3A4 (Homo sapiens) (UniProt P08684) | compound CC1=NN(c2cc(Cl)c(S(=O)(=O)O)cc2Cl)C(=O)C1N=Nc1ccc(S(=O)(=O)O)cc1 (stereo not given)
Response given: inactive
